Property: viability at 28.5 h, 10 µM; scope: individual molecules
# ASSAY COMMENT: in vitro
# MEASUREMENT CONDITIONS: human, hela cells, % viability

MOLECULE	viability at 28.5 h, 10 µM / %
CCCc1ccc(S(=O)(=O)Nc2ccc(C(=O)O)cc2)cc1 [CBK034044]	114
c1ccc(CNc2nc(-c3ccco3)cn3ccnc23)nc1 [CBK037482]	96.6
CC(C)[C@H](CO)n1c(=O)[nH]c2ncc(-c3ccco3)nc21 [CBK064479]	86.7
CSc1ccccc1CNC(=O)c1cc(Br)cnc1N(C)C(C)=O [CBK076478]	106
CCc1c(C)nc2c(C(=O)N3CCCC3COC)cnn2c1C (centres unmarked) [CBK162146]	92.1
Cc1c(NC(=S)NC(=O)Cc2ccccc2)cccc1-c1nc2ncccc2o1 [CBK264345]	118
COc1ccc(S(=O)(=O)N2CCOCC2)cc1C(=O)Nc1ccc2c(c1)OCO2 [CBK265548]	102
Cc1cc(C)c(C)c(S(=O)(=O)Nc2cc(S(=O)(=O)N3CCOCC3)ccc2F)c1C [CBK269698]	61.9

====

Property: viability at 28.5 h, 10 µM; scope: individual compounds
# ASSAY COMMENT: in vitro
# MEASUREMENT CONDITIONS: human, hela cells, % viability
PARAMETER: viability at 28.5 h, 10 µM (%)

COMPOUND	NUMERIC READOUT
COc1ccc(C(NC(=O)C2CCN(CCn3cnc4c3c(=O)n(C)c(=O)n4C)CC2)c2ccco2)cc1 (centres unmarked)	85.8
CC(C)(C)OC(=O)COc1cc2oc(=O)cc(-c3ccccc3)c2cc1Cl	87.6
O=S1(=O)CCN(Cc2ccc3c(c2)OCO3)CC1	93.9
CCc1nc2c(OCCOc3ccccc3)cccn2c1N(C)C(=O)COc1ccccc1	95.2
Cn1c(SCC(=O)c2ccc([N+](=O)[O-])cc2)nnc1-c1ccc(N)cc1	97.9
CCOC(=O)c1c(NC(=O)CSc2nncn2C)sc(C)c1C	89.8
COC(=O)CCc1ccc(-c2cnc(N)c(-c3ccc(O)cc3)n2)cc1	88.9
O=C(NCCCN1CCc2ccccc2C1)C1CC1c1ccco1 (centres unmarked)	91.8

====

# ASSAY COMMENT: in vitro
# MEASUREMENT CONDITIONS: human, hela cells, % viability
# label = 1.0 if viability at 28.5 h, 10 µM < 90% else 0.0

COMPOUND	DISCRETE LABEL
CCN(CC)CCO/N=C1\CC2(CCCCC2)c2ccccc21 [CBK013325]	0.0
CCOc1ccc(N2C(=O)CC(N3CCN(c4ccc(C(=O)c5ccncc5)cc4)CC3)C2=O)cc1 (centres unmarked) [CBK269124]	1.0
CC(C)c1ccnc(C(C)Sc2nc(N)c(Br)c(Cl)n2)c1 (centres unmarked) [CBK016828]	1.0
O=C(c1cncnc1)N1CCC2(CCN(Cc3ccccc3)CC2)C1 [CBK136782]	0.0
CC(C)(C)OC(=O)N1CCN(c2cc(NCc3ccccc3)ncn2)CC1 [CBK000137]	0.0
CCOc1ccccc1NC(=O)CSc1nc(N)cc(O)n1 [CBK268075]	0.0

====

Property: viability at 28.5 h, 10 µM; scope: individual compounds
# ASSAY COMMENT: in vitro
# MEASUREMENT CONDITIONS: human, hela cells, % viability
PARAMETER: viability at 28.5 h, 10 µM (%)

COMPOUND	VALUE UNITS	NUMERIC READOUT
Cc1ccn2c(=O)c(C(=O)NCc3cccnc3N3CCOCC3)cnc2c1	%	86.1
CC(/C=C1\SC(=S)N(C(Cc2ccccc2)C(=O)O)C1=O)=C\c1ccccc1 (centres unmarked)	%	91.7
Cn1nc(NC(=O)CC(C)(C)CC(=O)O)c2c(F)cccc21	%	86.3
CN(C)c1nc(N(C)C)n(C(=O)c2cccs2)n1	%	99.3
Fc1ccc([C@@H]2CN(Cc3ccccn3)C[C@H]2c2cc[nH]n2)cc1	%	104
COc1cc(/C=N/Nc2nc(-c3ccccc3)cc(-c3ccc(OC)c(OC)c3)n2)ccc1O	%	52.2
O=C(Nc1ccc(F)cc1)c1c(NS(=O)(=O)c2ccc(Oc3ccccc3)cc2)sc2c1CCCC2	%	96.7
Cn1nnc2cc(NCC3(CNC(=O)OC(C)(C)C)CC3)ccc21	%	89.1
